Reported Activity values follow for various compounds
Test Protocol: Measured activity expressed as ID50 (analogue)/ID50 (paclitaxel), where ID50 is the concentration of compound leading to 50% inhibition of the rate microtubule disassembly
Type: functional
Could you keep your reply to the number by itself?

[
  {
    "Compound": "CC(=O)O[C@H]1C(=O)[C@]2(C)[C@@H](O)CC3OC[C@@]3(OC(C)=O)[C@H]2[C@H](OC(=O)c2ccccc2)[C@]2(O)C[C@H](OC(=O)[C@H](O)[C@H](NC(=O)c3ccccc3)c3cccc4ccccc34)C(C)=C1C2(C)C (some centres not stated)",
    "Number": 7.1
  },
  {
    "Compound": "CCCCOC(=O)N[C@H](c1ccccc1)[C@@H](O)C(=O)O[C@H]1C[C@@]2(O)[C@@H](OC(=O)c3ccccc3)[C@H]3[C@](C)(C(=O)[C@H](OC(C)=O)C(=C1C)C2(C)C)[C@@H](O)CC1OC[C@]13OC(C)=O (some centres not stated)",
    "Number": 0.8
  },
  {
    "Compound": "CC(=O)O[C@H]1C(=O)[C@]2(C)[C@@H](O)CC3OC[C@@]3(OC(C)=O)[C@H]2[C@H](OC(=O)c2ccccc2)[C@]2(O)C[C@H](OC(=O)[C@H](O)[C@H](NC(=O)c3ccc(C(F)(F)F)cc3)c3ccccc3)C(C)=C1C2(C)C (some centres not stated)",
    "Number": 6
  },
  {
    "Compound": "CO[C@H]1CC2OC[C@@]2(OC(C)=O)[C@H]2[C@H](OC(=O)c3ccccc3)[C@]3(O)C[C@H](OC(=O)[C@H](O)[C@@H](NC(=O)c4ccccc4)c4ccccc4)C(C)=C([C@@H](OC(C)=O)[C@H](O)[C@]12C)C3(C)C (some centres not stated)",
    "Number": 0.92
  },
  {
    "Compound": "CC(=O)O[C@H]1C(=O)[C@]2(C)[C@@H](O)CC3OC[C@@]3(OC(C)=O)[C@H]2[C@H](OC(=O)c2ccccc2)[C@]2(O)C[C@H](OC(=O)[C@H](O)[C@H](NC(=O)CC(C)C)c3ccccc3)C(C)=C1C2(C)C (some centres not stated)",
    "Number": 1.9
  },
  {
    "Compound": "CC(=O)O[C@@]12COC1C[C@H](O)[C@@]1(C)C(=O)[C@H](O)C3=C(C)[C@@H](OC(=O)[C@H](NC(=O)c4ccccc4)[C@H](O)c4ccccc4)C[C@@](O)([C@@H](OC(=O)c4ccccc4)[C@@H]12)C3(C)C (some centres not stated)",
    "Number": 10
  }
]

Now consider the entry below.
In plain terms, CC(=O)O[C@@]12COC1C[C@H](O)[C@@]1(C)C(=O)[C@H](O)C3=C(C)[C@@H](OC(=O)[C@H](O)[C@@H](/C=C/c4ccccc4)NC(=O)OC(C)(C)C)C[C@@](O)([C@@H](OC(=O)c4ccccc4)[C@@H]12)C3(C)C (some centres not stated) has a documented Activity of 1.45

###

Test Protocol: Measured activity expressed as ID50 (analogue)/ID50 (paclitaxel), where ID50 is the concentration of compound leading to 50% inhibition of the rate microtubule disassembly
Type: functional
Answer Not met if Activity is under 4, and Met if it is 4 or more.

[
  {
    "Compound": "CC(=O)O[C@H]1C(=O)[C@]2(C)[C@@H](O)CC3OC[C@@]3(OC(C)=O)[C@H]2[C@H](OC(=O)c2ccccc2)[C@]2(O)C[C@H](OC(=O)[C@H](O)[C@H](NC(=O)c3ccco3)c3ccccc3)C(C)=C1C2(C)C (some centres undefined)",
    "Classification": "Not met"
  },
  {
    "Compound": "CC(=O)O[C@H]1C(=O)[C@]2(C)[C@@H](O)CC3OC[C@@]3(OC(C)=O)[C@H]2[C@H](OC(=O)c2ccccc2)[C@]2(O)C[C@H](OC(=O)[C@@H](O)[C@@H](NC(=O)c3ccccc3)c3ccccc3)C(C)=C1C2(C)C (some centres undefined)",
    "Classification": "Met"
  },
  {
    "Compound": "CC(=O)O[C@@]12COC1C[C@H](O)[C@@]1(C)C(=O)[C@H](O)C3=C(C)[C@@H](OC(=O)[C@H](O)[C@@H](NC(=O)OC(C)(C)C)c4ccccc4)[C@@H]4OC(C)(C)O[C@]4([C@@H](OC(=O)c4ccccc4)[C@@H]12)C3(C)C (some centres undefined)",
    "Classification": "Not met"
  },
  {
    "Compound": "COc1ccc([C@@H](NC(=O)c2ccccc2)[C@@H](O)C(=O)O[C@H]2C[C@@]3(O)[C@@H](OC(=O)c4ccccc4)[C@H]4[C@](C)(C(=O)[C@H](OC(C)=O)C(=C2C)C3(C)C)[C@@H](O)CC2OC[C@]24OC(C)=O)cc1 (some centres undefined)",
    "Classification": "Not met"
  },
  {
    "Compound": "CC(=O)O[C@H]1C(=O)[C@]2(C)[C@@H](O)CC3OC[C@@]3(OC(C)=O)[C@H]2[C@H](OC(=O)c2ccccc2)[C@]2(O)C[C@H](OC(=O)C(O)C(C)O)C(C)=C1C2(C)C (some centres undefined)",
    "Classification": "Met"
  },
  {
    "Compound": "CC(=O)O[C@H]1C(=O)[C@]2(C)[C@@H](O)CC3OC[C@@]3(OC(C)=O)[C@H]2[C@H](OC(=O)c2ccccc2)[C@]2(O)C[C@H](OC(=O)[C@@H](O)[C@@H](NC(=O)OC(C)(C)C)c3ccccc3)C(C)=C1C2(C)C (some centres undefined)",
    "Classification": "Met"
  }
]

State whether the measured Activity reaches 4, counting equality as reaching it, for CC(=O)O[C@H]1C(=O)[C@]2(C)[C@@H](O)CC3OC[C@@]3(OC(C)=O)[C@H]2[C@H](OC(=O)c2ccccc2)[C@]2(O)C[C@H](OC(=O)[C@H](O)[C@H](NC(=O)c3ccccc3)c3ccccn3)C(C)=C1C2(C)C (some centres undefined)
Not met

State whether the measured Activity reaches 4, counting equality as reaching it, for CC(=O)O[C@@]12COC1C[C@H](O)[C@@]1(C)C(=O)[C@H](O)C3=C(C)[C@@H](OC(=O)/C=C/c4ccccc4)C[C@@](O)([C@@H](OC(=O)c4ccccc4)[C@@H]12)C3(C)C (some centres undefined)
Met

State whether the measured Activity reaches 4, counting equality as reaching it, for CC(=O)O[C@@H]1C2=C(C)[C@@H](OC(=O)[C@H](O)[C@H](C)NC(=O)OC(C)(C)C)C[C@@](O)([C@@H](OC(=O)c3ccccc3)[C@H]3[C@@](C)([C@@H](O)CC4OC[C@]43OC(C)=O)[C@H]1O)C2(C)C (some centres undefined)
Not met
